The entries below come with measured IC50 (pSTAT3) values attached.
Molecular target: T1, human IL-23R endogenously expressed on DB cells (CRL-2289) (human, UniProt Q5VWK5 24-629)
T1 sequence (looked up): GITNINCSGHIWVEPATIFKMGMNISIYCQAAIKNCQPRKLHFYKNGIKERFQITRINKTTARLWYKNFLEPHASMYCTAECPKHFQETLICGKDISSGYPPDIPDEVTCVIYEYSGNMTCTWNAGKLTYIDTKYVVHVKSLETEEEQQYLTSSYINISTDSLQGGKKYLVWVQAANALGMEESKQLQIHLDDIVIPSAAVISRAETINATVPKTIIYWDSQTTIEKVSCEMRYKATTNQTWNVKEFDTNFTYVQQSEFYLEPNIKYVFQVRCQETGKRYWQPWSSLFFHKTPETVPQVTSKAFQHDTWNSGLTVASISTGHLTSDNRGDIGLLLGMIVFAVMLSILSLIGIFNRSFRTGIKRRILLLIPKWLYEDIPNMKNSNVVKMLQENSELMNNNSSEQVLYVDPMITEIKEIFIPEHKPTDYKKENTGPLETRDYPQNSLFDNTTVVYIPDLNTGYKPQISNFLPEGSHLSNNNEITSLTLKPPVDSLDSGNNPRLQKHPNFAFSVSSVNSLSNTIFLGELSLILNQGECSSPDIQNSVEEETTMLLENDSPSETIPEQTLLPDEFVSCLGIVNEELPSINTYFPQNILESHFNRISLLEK
Test: cell-based or functional assay
*1 amine or outer side, *2 acyl side, *3 side chain or, on linkers, in order; H or OH if unused. Bridges are numbered along the chain shown (N, C = ends). Where no end group is shown, it is not given here. [ ]: non-standard residue; d: D form. 4‑Aminomethyl‑phenylacetyl = 4-aminomethyl-phenylacetyl unit, its amine closes the lactam, O=C(Cc1ccc(CN[*:1])cc1)[*:2]; 1,3‑dibromopropan‑2‑one = linker (CAS 816-39-7) joining two Cys as 1,3-dithio-propan-2-one bridge -SCH2C(=O)CH2S-; Trp(7-Me) = Cc1cccc2c(C[C@H](N)C(=O)O)c[nH]c12; Phe(3,4-Me2) = Cc1ccc(C[C@H](N)C(=O)O)cc1C; 2Nal = N[C@@H](Cc1ccc2ccccc2c1)C(=O)O; AEF = NCCOc1ccc(C[C@H](N)C(=O)O)cc1; 3Pal = N[C@@H](Cc1cccnc1)C(=O)O; αMeL = CC(C)C[C@](C)(N)C(=O)O; CH2COCH2 = O=C(C[*:1])C[*:2]; αMeK = C[C@](N)(CCCCN)C(=O)O; αMeV = CC(C)[C@](C)(N)C(=O)O; 3Amb = NCc1cccc(C(=O)O)c1; Dab = NCC[C@H](N)C(=O)O

Some binders with known IC50 (pSTAT3) results, for comparison:
[
  {
    "BINDER": "Ac-DESCWCWWLKR-NH2 (lactam 2-10; linker 4-6 via 1,3‑dibromopropan‑2‑one) [Ref 6]",
    "IC50 (pSTAT3)": "> 1 µM"
  },
  {
    "BINDER": "[4‑Aminomethyl‑phenylacetyl]IEWQ[Dab][AEF][Phe(3,4-Me2)][αMeV]EG[3Pal]-NH2 (lactam (positions not given here); lactam 3-6; not fully specified (bridges); printed as [4-Aminomethyl-phenylacetyl](1c)*IE(2c)WQ[Dab](2c)[Y(2-aminoethoxy)][F(3,4-Me)][2-Me-Val]E(1c)G[3-(3-Pyridyl)-Ala]-[NH2]) [Compound 158]",
    "IC50 (pSTAT3)": "0.635 nM"
  },
  {
    "BINDER": "Ac-DCQCWQC[2Nal]W[αMeL]CR-NH2 (linker 2-11, 4-7 via CH2COCH2) [Compound 62]",
    "IC50 (pSTAT3)": "> 1 µM"
  },
  {
    "BINDER": "Ac-DESCWQCW[2Nal][αMeK]KENG-NH2 (lactam 2-11; linker 4-7 via CH2COCH2; SMILES CC(=O)N[C@@H](CC(=O)O)C(=O)N[C@H]1CCC(=O)NCCCC[C@@H](C(=O)N[C@@H](CCC(=O)O)C(=O)N[C@@H](CC(N)=O)C(=O)NCC(N)=O)NC(=O)[C@](C)(CCCCN)NC(=O)[C@H](Cc2ccc3ccccc3c2)NC(=O)[C@H](Cc2c[nH]c3ccccc23)NC(=O)[C@@H]2CSCC(=O)CSC[C@H](NC(=O)[C@H](CO)NC1=O)C(=O)N[C@@H](Cc1c[nH]c3ccccc13)C(=O)N[C@@H](CCC(N)=O)C(=O)N2) [Compound 61]",
    "IC50 (pSTAT3)": "> 1 µM"
  },
  {
    "BINDER": "[3Amb]SC[Trp(7-Me)]QC[AEF][2Nal][αMeL]ER-NH2 (lactam (positions not given here); linker 3-6 via CH2COCH2; not fully specified (bridges)) [Compound 70]",
    "IC50 (pSTAT3)": "8.43 nM"
  }
]

-- ask Query: IC50 (pSTAT3); subject: [4‑Aminomethyl‑phenylacetyl]IEWQ[Dab][AEF][2Nal][αMeV]E[Dab][3Pal]-NH2 (lactam (positions not given here); lactam 3-6; not fully specified (bridges); printed as [4-Aminomethyl-phenylacetyl](1c)*IE(2c)WQ[Dab](2c)[Y(2-aminoethoxy)][2-Nal][2-Me-Val]E(1c)[Dab][3-(3-Pyridyl)-Ala]-[NH2]) [Compound 157]
-- reply 0.0318 nM
